So I've got a bunch of substances here, and I need their % Improvement (reduction in pressure/increase), mPAP values.
# Tested on: hypoxia induced pulmonary hypertensive mice
# method_description: Hemodynamic analysis (mPAP, RVSP by catheter) in hypoxia induced PH mice
# Format: in vivo, C57BL/6 mice
# measurement_parameters: Table 2; vs hypoxia w/o treatment
Positions of bridges follow the written chain, without caps; N, C: chain ends. Non-standard residues stand in square brackets, D forms with d. No end group written: not given here. mini‑PEG = diethylene glycol
# number only, unit % dropped from output

% Improvement (reduction in pressure/increase), mPAP for (mini-PEG)-CDCRHNTAG ({mini‑PEG}-CDCRHNTAG; not fully specified (bridges); printed as (mini-PEG)-CDCRHNTAG; cysteine pairing not given here) [V1P] is 88

Value of % Improvement (reduction in pressure/increase), mPAP reported for the substance SDCRHNTAG (Peptide based on human Netrin-1 sequence) [V1S] is 100

Item: (mini-PEG)-CPCKDGVTIGIT ({mini‑PEG}-CPCKDGVTIGIT; cysteine pairing not given here) [V3P] | % Improvement (reduction in pressure/increase), mPAP: 96

// % Improvement (reduction in pressure/increase), mPAP value for CDCRHNTAG [V1C] (disulfide 1-3) : 100

Recorded result, (mini-PEG)-CLNCRHNTAG ({mini‑PEG}-CLNCRHNTAG; cysteine pairing not given here) [V2P] , % Improvement (reduction in pressure/increase), mPAP: 62

response.value for TDCRHNTAG (Peptide based on human Netrin-1 sequence) [V1T] (field: % Improvement (reduction in pressure/increase), mPAP) = 76

The reported value for dCDCRHNTAdG ([dC]DCRHNTAG; cysteine pairing not given here) [V1D] in terms of % Improvement (reduction in pressure/increase), mPAP is 84

----------
# System: hypoxia induced pulmonary hypertensive mice
# method_description: Hemodynamic analysis (mPAP, RVSP by catheter) in hypoxia induced PH mice
# Format: in vivo, C57BL/6 mice
# measurement_parameters: mice, 10% oxygen 21 days, 15 ng/day s.c. mini-osmotic pump; hypoxia 40.54±4.473, normoxia 19.41±1.281; mean±SEM
Positions of bridges follow the written chain, without caps; N, C: chain ends. Non-standard residues stand in square brackets, D forms with d. No end group written: not given here.
Task for the reader: assign each of the following substances its reported mean pulmonary arterial pressure (mPAP).
Numeric answer only, unit mmHg assumed.

# mean pulmonary arterial pressure (mPAP) of SDCRHNTAG (Peptide based on human Netrin-1 sequence) [V1S] = 16.58

The substance listed as dCDCRHNTAdG ([dC]DCRHNTAG; cysteine pairing not given here) [V1D] has a reported mean pulmonary arterial pressure (mPAP) of 22.89

Value of mean pulmonary arterial pressure (mPAP) reported for the substance CDCRHNTAG [V1C] (disulfide 1-3) is 17.76

----------
# System: hypoxia induced pulmonary hypertensive mice
# method_description: Hemodynamic analysis (mPAP, RVSP by catheter) in hypoxia induced PH mice
# Type: in vivo, C57BL/6 mice
# measurement_parameters: Table 3; (negative control mmHg-netrin-1 compound)/(negative control mmHg)
Positions of bridges follow the written chain, without caps; N, C: chain ends. Non-standard residues stand in square brackets, D forms with d. No end group written: not given here. mini‑PEG = diethylene glycol
Label 1 (yes) when % Reduction mPAP >= 40%; otherwise 0 (no).

Task: Could you tell me if the measured % Reduction mPAP of (mini-PEG)-CLNCRHNTAG ({mini‑PEG}-CLNCRHNTAG; cysteine pairing not given here) [V2P] reaches 40% or more?
Output: 0 (no)

Task: Please tell me: is the substance CLNCRHNTAG (Peptide based on human Netrin-1 sequence) [V2-10aa, 368-377 aa] at or over 40% in terms of % Reduction mPAP?
Output: 0 (no)

Task: Decide: is the reported value of % Reduction mPAP for SDCRHNTAG (Peptide based on human Netrin-1 sequence) [V1S] equal to or greater than 40%?
Output: 1 (yes)

Task: Please check the record (mini-PEG)-CPCKDGVTIGIT ({mini‑PEG}-CPCKDGVTIGIT; cysteine pairing not given here) [V3P] and state if its % Reduction mPAP is at or above 40%.
Output: 1 (yes)

Task: Is reported % Reduction mPAP greater than or equal to 40% here: dCDCRHNTAdG ([dC]DCRHNTAG; cysteine pairing not given here) [V1D]
Output: 1 (yes)

Task: Is it the case that CPCKDGVTGIT (Peptide based on human Netrin-1 sequence) [V3-11aa, 423-433 aa] has % Reduction mPAP reaching or exceeding 40%?
Output: 0 (no)

Task: Would you say (mini-PEG)-CDCRHNTAG ({mini‑PEG}-CDCRHNTAG; not fully specified (bridges); printed as (mini-PEG)-CDCRHNTAG; cysteine pairing not given here) [V1P] shows % Reduction mPAP at minimum 40%?
Output: 1 (yes)

Task: Quick check, % Reduction mPAP >= 40%? CDCRHNTAG [V1C] (disulfide 1-3)
Output: 1 (yes)
